Catalogue of Barnyardgrass plant response rating readings, one per entry.
# Test system: barnyardgrass (Echinochloa crus-galli)
# run.description: Test B pre-/postemergence plant response
# Assay type: in vivo
# measurement.setup: Preemergence, 31 g ai/ha; 0 to 100 scale (0 no effect, 100 complete control)
# Excerpt: […]
In your answer, state the number alone without any accompanying words.

Use the examples below as a reference point.
1) CC(C)n1cnc(-c2ccccc2Oc2ncc(Cl)cn2)n1 = 0
2) N#Cc1cc(-c2ccccc2Oc2ncc(Cl)cn2)no1 = 0

I am curious: what Barnyardgrass plant response rating value has been reported for `Cc1nnc(-c2ccccc2Oc2ncc(Cl)cn2)o1` ?
0

Entry to check: `COc1cccc(Oc2ncc(Cl)cn2)c1-c1cc(C(F)(F)F)no1`
20

Entry to check: `Cc1nc(-c2ccccc2Oc2ncc(Cl)cn2)co1`
0
